The reported measurements were obtained from BigSolDB 2.1.

details: in n-hexanol, 288.15 K
quantity: solubility (mole fraction)

>  <compound>
OCC1(O)OC[C@@H](O)[C@@H](O)[C@H]1O (stereo partly specified)

>  <quantitative readout>
0.000835

$$$$

###

settings: in 2-butanone, 283.15 K

>  <compound>
OCC1(O)OC[C@@H](O)[C@@H](O)[C@H]1O (stereo partly specified)

>  <solubility (mole fraction)>
0.000516

$$$$

###

conditions: in n-propanol, 288.15 K

>  <molecule>
OCC1(O)OC[C@@H](O)[C@@H](O)[C@H]1O (stereo partly specified)

>  <solubility (mole fraction)>
0.00191

$$$$

###

conditions: in 2-butanone, 303.15 K
quantity: solubility (mole fraction)

>  <compound>
OCC1(O)OC[C@@H](O)[C@@H](O)[C@H]1O (stereo partly specified)

>  <result>
0.00198

$$$$
